B1: TPR 5TU (parent)
chain: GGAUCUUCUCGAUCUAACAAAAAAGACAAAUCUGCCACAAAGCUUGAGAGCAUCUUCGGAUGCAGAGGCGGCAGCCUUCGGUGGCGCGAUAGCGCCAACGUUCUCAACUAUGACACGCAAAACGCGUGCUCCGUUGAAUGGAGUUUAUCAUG

variants of: B1; test: polymerase ribozyme fitness, log enrichment relative to wild type (log ratio); higher = more active; in vitro selection for triplet polymerase activity
This sample holds only a part of the variants without activity.
Cut-off -2 on polymerase ribozyme fitness (log ratio), inclusive. At or above means yes; below means no.

U55A A121U	yes

q: Does the variant A3C A28U U77A C93U C129A U148G have recorded polymerase ribozyme fitness (log ratio) that is -2 or more?
a: no

q: Does the variant A40C C51U C57A G94U C114G A150G have recorded polymerase ribozyme fitness (log ratio) that is -2 or more?
a: no
